Origin of measurements: ChEMBL document CHEMBL3580564

MEASUREMENT TARGET: Sodium-dependent noradrenaline transporter (Homo sapiens)
Sequence (P23975 whole entry): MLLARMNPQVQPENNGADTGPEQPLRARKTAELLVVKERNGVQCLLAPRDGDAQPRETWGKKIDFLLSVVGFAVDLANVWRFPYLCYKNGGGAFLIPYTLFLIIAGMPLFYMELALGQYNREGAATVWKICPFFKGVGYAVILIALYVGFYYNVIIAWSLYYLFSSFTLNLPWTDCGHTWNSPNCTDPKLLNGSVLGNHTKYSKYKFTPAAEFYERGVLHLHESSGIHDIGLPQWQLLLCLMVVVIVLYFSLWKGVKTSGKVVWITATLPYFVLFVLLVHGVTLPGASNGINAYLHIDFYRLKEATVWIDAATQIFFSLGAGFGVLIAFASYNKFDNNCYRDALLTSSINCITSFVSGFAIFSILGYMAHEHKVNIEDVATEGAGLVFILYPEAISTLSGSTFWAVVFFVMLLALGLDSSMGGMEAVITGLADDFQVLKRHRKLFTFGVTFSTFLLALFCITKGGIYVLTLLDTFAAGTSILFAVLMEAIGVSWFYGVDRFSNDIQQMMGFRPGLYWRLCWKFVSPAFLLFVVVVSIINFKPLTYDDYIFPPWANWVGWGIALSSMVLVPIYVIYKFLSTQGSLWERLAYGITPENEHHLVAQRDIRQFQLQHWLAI
MEASUREMENT PROTOCOL: Displacement of [3H]nisoxetine from human recombinant NET expressed in HEK cell membranes by radioligand binding assay
Set-up: species or system HEK293
pKi: −log10 of the molar value.
PARAMETER: pKi

COMPOUND STRUCTURE: COc1cc2c(cc1O)C[C@H]1c3c(cc(OC)c(OC)c3-2)CCN1C
MEASUREMENT TARGET: Sodium-dependent noradrenaline transporter (Homo sapiens)
OBSERVED RESULT: < 6.02

----------
MEASUREMENT TARGET: 5-hydroxytryptamine receptor 5A (Homo sapiens)
Sequence (P47898 whole entry): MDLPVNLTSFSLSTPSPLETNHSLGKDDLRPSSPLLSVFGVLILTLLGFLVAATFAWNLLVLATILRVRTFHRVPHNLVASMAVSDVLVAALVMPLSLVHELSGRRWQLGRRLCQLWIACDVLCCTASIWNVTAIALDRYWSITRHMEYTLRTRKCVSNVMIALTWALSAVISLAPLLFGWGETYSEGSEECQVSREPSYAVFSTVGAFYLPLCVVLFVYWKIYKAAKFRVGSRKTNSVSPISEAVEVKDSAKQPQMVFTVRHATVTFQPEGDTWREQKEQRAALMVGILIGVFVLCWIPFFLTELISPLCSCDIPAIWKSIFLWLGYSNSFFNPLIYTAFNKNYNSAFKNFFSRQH
MEASUREMENT PROTOCOL: Displacement of [3H]LSD from human recombinant 5-HT5A receptor expressed in Flp-In CHO cell membranes by radioligand binding assay

COMPOUND STRUCTURE: COc1cc2c(cc1O)C[C@H]1c3c(cc(OC)c(OC)c3-2)CCN1C
Ki: 566 nM

----------
MEASUREMENT TARGET: 5-hydroxytryptamine receptor 6 (Homo sapiens)
Sequence (P50406 whole entry): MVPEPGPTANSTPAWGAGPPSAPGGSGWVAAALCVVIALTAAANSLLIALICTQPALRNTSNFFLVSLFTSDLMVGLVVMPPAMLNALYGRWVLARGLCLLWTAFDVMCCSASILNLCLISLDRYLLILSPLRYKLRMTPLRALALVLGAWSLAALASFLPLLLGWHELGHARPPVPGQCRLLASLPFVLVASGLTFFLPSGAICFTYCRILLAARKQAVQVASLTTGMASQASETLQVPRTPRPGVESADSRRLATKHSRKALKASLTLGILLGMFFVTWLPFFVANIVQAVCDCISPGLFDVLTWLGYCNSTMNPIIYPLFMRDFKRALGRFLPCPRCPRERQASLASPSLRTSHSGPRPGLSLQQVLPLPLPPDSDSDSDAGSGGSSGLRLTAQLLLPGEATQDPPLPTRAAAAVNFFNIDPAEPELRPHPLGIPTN
MEASUREMENT PROTOCOL: Displacement of [3H]LSD from human recombinant 5-HT6 receptor expressed in HEK cell membranes by radioligand binding assay
pKi: −log10 of the molar value.
PARAMETER: pKi

COMPOUND STRUCTURE: COc1cc2c(cc1O)C[C@H]1c3c(cc(OC)c(OC)c3-2)CCN1C
PARAMETER: pKi
OBSERVED RESULT: 6.51

----------
MEASUREMENT TARGET: UniProt P08908
Sequence (P08908 whole entry): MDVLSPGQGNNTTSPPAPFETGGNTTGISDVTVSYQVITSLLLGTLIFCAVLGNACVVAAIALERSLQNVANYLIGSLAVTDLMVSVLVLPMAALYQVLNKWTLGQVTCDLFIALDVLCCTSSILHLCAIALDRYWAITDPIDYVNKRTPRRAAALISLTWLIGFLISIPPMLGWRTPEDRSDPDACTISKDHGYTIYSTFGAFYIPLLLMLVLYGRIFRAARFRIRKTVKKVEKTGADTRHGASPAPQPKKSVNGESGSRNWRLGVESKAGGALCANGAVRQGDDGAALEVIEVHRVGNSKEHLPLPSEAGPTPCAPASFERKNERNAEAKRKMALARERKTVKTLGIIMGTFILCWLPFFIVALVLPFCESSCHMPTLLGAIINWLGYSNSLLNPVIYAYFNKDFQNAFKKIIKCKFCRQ
MEASUREMENT PROTOCOL: Displacement of [3H]Way100635 from human recombinant 5-HT1A receptor expressed in CHO cell membranes by radioligand binding assay
pKi: −log10 of the molar value.

COMPOUND: CCCCC(C)Oc1cc2c(cc1OC)-c1c(OC)c(OC)cc3c1[C@H](C2)N(C)CC3 (some centres not stated)
pKi: 6.82

COMPOUND: COc1cc2c(cc1O)C[C@H]1c3c(cc(OC)c(OC)c3-2)CCN1C
pKi: 6.50

COMPOUND: COc1cc2c(cc1OCc1ccccc1)C[C@H]1c3c(cc(OC)c(OC)c3-2)CCN1C
pKi: 7.04

COMPOUND: COc1cc2c(cc1OC1CCCCC1)C[C@H]1c3c(cc(OC)c(OC)c3-2)CCN1C
pKi: 6.79

COMPOUND: COc1cc2c(cc1OCc1ccc(Br)cc1)C[C@H]1c3c(cc(OC)c(OC)c3-2)CCN1C
pKi: 6.99

COMPOUND: COc1cc2c(cc1OC(C)C)C[C@H]1c3c(cc(OC)c(OC)c3-2)CCN1C
pKi: 6.25

COMPOUND: COc1cc2c(cc1OCCF)C[C@H]1c3c(cc(OC)c(OC)c3-2)CCN1C
pKi: 6.07
